The measurements presented in this section are drawn from the supplement of paper PMC7125110.

B1: glmS ribozyme (parent)
chain: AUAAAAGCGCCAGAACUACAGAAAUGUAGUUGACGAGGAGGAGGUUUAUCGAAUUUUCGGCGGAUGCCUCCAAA

# Variants of: B1
# Protocol details: self-cleavage kobs at 640 uM GlcN6P; higher = faster cleavage; RNA array
# Measurement setup: with glucosamine-6-phosphate
Fewer inactive variants are shown than the library holds.
Metric name: self-cleavage kobs at 640 uM GlcN6P

# Polymer sequence, self-cleavage kobs at 640 uM GlcN6P
records = [
    ("AUAAAAGCGCCAGAACUACAGAAAUGUAGUUAACGAGGAGGAGGUUGAUCGAAUUUUCGGCGGAUGCCUCCAAA [G32A U47G]", "0.000142 s⁻¹"),
    ("AUAAAAGCGCCAGAACUACAGAAAUGUAGUUGACGAGGAGGAGGUUUAUCCAAUUUUCGGAGGAUGCCUCCAAA [G51C C61A]", "< 1e-05 s⁻¹"),
    ("ACAAAAGCGCCAGAACUACAGAAAUGUAGUUGACUAGGAGGAGGUUUAUCGAAUUUUCGGCGGAUGCUUCCAAA [U2C G35U C68U]", "< 1e-05 s⁻¹"),
]

I am curious: what self-cleavage kobs at 640 uM GlcN6P value has been reported for AUAAAAGCGCCAGGACUACAGAAAUGUAGUUGACGAGGAGGAGGUUUAUCCAAUUUUCGGCGGAUGCCUCCAAA [A14G G51C] ?
< 1e-05 s⁻¹

I am curious: what self-cleavage kobs at 640 uM GlcN6P value has been reported for AUAAAAGCACCAGAACUACAGAAAUGUAGUUGACGAGGAGGAGGUUUAUAGAAUUUUCGGCGGAUGCCUCCAAA [G9A C50A] ?
< 1e-05 s⁻¹

I am curious: what self-cleavage kobs at 640 uM GlcN6P value has been reported for AUAAAAGCGCCAGAACUACAGAAAUGUAGUUGACGAUGAGCAGGUUUAUCGAAUUUUCGUCGGAUGCCUCCAAA [G37U G41C G60U] ?
< 1e-05 s⁻¹

I am curious: what self-cleavage kobs at 640 uM GlcN6P value has been reported for AUAAAAGCGCCAGAACUACAGAAAUGUAGGUGACGAGGAGGAGGUUUAUCGAAUUUUCGGCGGAUGCCGCCAAA [U30G U69G] ?
6.34e-05 s⁻¹

I am curious: what self-cleavage kobs at 640 uM GlcN6P value has been reported for AUAAAAGCGCCAGAACUACAGAAAUGUAGUUGACGAGGAGGAGGAUUAUCGAUUUUUCGGCGGAAGCCUCCAAA [U45A A53U U65A] ?
0.0024 s⁻¹
